FYI, the data here is from the RNAGym collection of RNA variant scans (doi:10.7554/elife.80360).

B1: CPEB3 Ribozyme (parent)
chain: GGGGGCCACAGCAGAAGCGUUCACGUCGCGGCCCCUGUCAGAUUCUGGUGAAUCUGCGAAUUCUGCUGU

Variants of: B1
Assay: self-cleavage, relative activity (ratio to wild type); higher = more cleavage; co-transcriptional
If the reported self-cleavage equals or exceeds 0.2, assign Y. If not, assign N.

Look over these answered cases.
INSERT INTO results (sequence_code, label_class) VALUES
  ('GGGGGCCACAGCAAAAGCGUUCACGUCGCGGCCCCUGUCAGAUUCUGGUGAAUCUGCGAGUUCUGCUGU [G14A A60G]', 'Y'),
  ('GGGGGCCACAGCAGAAGCGUUCACGUCGCGCCCCCUGUCAGAUUCUGGUGAUUCUGCGAAUUCUGCUGU [G31C A52U]', 'N'),
  ('GGGGGCCACAGCAGAAGCGUUCACGUCGCGGCCCCUGUCAGCUUCUGGUGAAUCUGCGAAUUCUGCAGU [A42C U67A]', 'Y'),
  ('GGGGGCCACAGCAGAAGCGCUCACGUCGCGACCCCUGUCAGAUUCUGGUGAAUCUGCGAAUUCUGCUGU [U20C G31A]', 'Y'),
  ('GGGGGCCACAGCAAAAGCGUUCACUUCGCGGCCCCUGUCAGAUUCUGGUGAAUCUGCGAAUUCUGCUGU [G14A G25U]', 'N'),
  ('GGGGGCCACAGCAGAAGCGAUCACGUCGCGGCCCCUGUCAGAUUCUGGUGAAUCUGCGAAUUCUGAUGU [U20A C66A]', 'N'),
  ('GGGGGCCACAGCAGAAGCGUUCACGUCGCGCCCCCUGUCAGAUUGUGGUGAAUCUGCGAAUUCUGCUGU [G31C C45G]', 'Y'),
  ('GGGGGCCACAGCAGAAGGGUUCACGUCGCGGCGCCUGUCAGAUUCUGGUGAAUCUGCGAAUUCUGCUGU [C18G C33G]', 'N');

Prompt: // inclusive: self-cleavage at least 0.2? input: GUGGGCCACAGCAGAAGCGUUCACGUCGCGGCCCCUGUCAGAUUGUGGUGAAUCUGCGAAUUCUGCUGU [G2U C45G]
Completion: N

Prompt: // inclusive: self-cleavage at least 0.2? input: GGGGGCCACAGCGGAAGCGUUCACGUCGCGGCCCCUGUCAGAUUCUGGUGAAUCUCCGAAUUCUGCUGU [A13G G56C]
Completion: Y
